experiment: First-in-human SAD and MAD study, pharmacokinetics; assay type: in vivo; settings: human, plasma, oral, 30 mg, SAD, 30 mg fasted, N=6, Mean ± SD
Value Kind: Cmax (ng/mL)
Give bare numbers, in ng/mL.

Exercise: Quick one: Cmax for Cc1cc(N2CCc3cc(F)ccc3C2)cc(C)c1NC(=O)CC(C)(C)C [Compound A] ?
Solution: 35.5

---

test: First-in-human SAD and MAD study, pharmacokinetics; type: in vivo; details: human, plasma, oral, 25 mg, SAD, 25 mg fed standard breakfast, N=6, Mean ± SD; read-out: AUC0-24
Value Kind: AUC(0-t) (ng·h/mL)
Answers are plain numbers, in ng·h/mL.

Exercise: Quick one: AUC(0-t) for Cc1cc(N2CCc3cc(F)ccc3C2)cc(C)c1NC(=O)CC(C)(C)C ?
Solution: 482

---

assay: First-in-human SAD and MAD study, pharmacokinetics; assay type: in vivo; details: human, plasma, oral, 15 mg, MAD, 15 mg QD Fasted, Day 7, N=6, mean
Value Kind: Cmax (µg/mL)
Answers are plain numbers, in µg/mL.

Exercise: Quick one: Cmax for Cc1cc(N2CCc3cc(F)ccc3C2)cc(C)c1NC(=O)CC(C)(C)C ?
Solution: 0.0451

---

assay: TMS crossover study, pharmacokinetic analysis; assay type: in vivo, human; conditions: male, human, plasma, oral, 20 mg, Overall (N=20), Mean ± SD; read-out: Cmax
Value Kind: Cmax

Exercise: Quick one: Cmax for Cc1cc(N2CCc3cc(F)ccc3C2)cc(C)c1NC(=O)CC(C)(C)C ?
Solution: 59.2 ng/mL

---

Assay: TMS crossover study, pharmacokinetic analysis
Assay type: in vivo, human
Conditions: male, human, plasma, oral, 20 mg, Compound A Treatment Period, 6 h, Mean
Method: A randomized, double-blind, placebo-controlled, transcranial magnetic stimulation (TMS) crossover study investigated the safety, tolerability, pharmacokinetics (PK), and pharmacodynamics (PD) of single doses of Compound A in healthy right-handed male subjects. […] The PK parameters for this study were summarized in two ways. Firstly, PK parameters were calculated where possible using the PK samples collected during each 24 h sampling period for Period 1 and Period 2 separately. […]
Value Kind: concentration at 6 h (ng/mL)
Numbers only, in ng/mL.

Exercise: Quick one: concentration at 6 h for Cc1cc(N2CCc3cc(F)ccc3C2)cc(C)c1NC(=O)CC(C)(C)C ?
Solution: 42.1

---

assay: First-in-human SAD and MAD study, pharmacokinetics; assay type: in vivo; settings: human, plasma, oral, 25 mg, MAD, 25 mg QD Fed, Day 10, N=6, mean
Value Kind: Cmax (ng/mL)
Give bare numbers, in ng/mL.

Exercise: Quick one: Cmax for Cc1cc(N2CCc3cc(F)ccc3C2)cc(C)c1NC(=O)CC(C)(C)C ?
Solution: 96.7

---

assay: Food effect study, oral capsule, plasma PK in non-human primate; type: in vivo, Cynomolgus monkeys; settings: cynomolgus monkey, plasma, oral, 3 mg/kg, Group 2 (fed), 3 mg/kg, 24 h, N=3
Value Kind: concentration at 24 h (ng/mL)
Numbers only, in ng/mL.

Exercise: Quick one: concentration at 24 h for Cc1cc(N2CCc3cc(F)ccc3C2)cc(C)c1NC(=O)CC(C)(C)C ?
Solution: 45

---

experiment: TMS crossover study, pharmacokinetic analysis; type: in vivo, human; details: male, human, plasma, oral, 20 mg, Placebo Treatment Period (carry-over), 4 h, Mean; read-out: Compound A Plasma Concentration
Value Kind: concentration at 4 h (ng/mL)
Give bare numbers, in ng/mL.

Exercise: Quick one: concentration at 4 h for Cc1cc(N2CCc3cc(F)ccc3C2)cc(C)c1NC(=O)CC(C)(C)C ?
Solution: 5.17

---

test: First-in-human SAD and MAD study, pharmacokinetics; assay type: in vivo; settings: human, plasma, oral, 15 mg, MAD, 15 mg QD Fasted, Day 1, N=6, mean
Value Kind: Tmax (h)
Numbers only, in h.

Exercise: Quick one: Tmax for Cc1cc(N2CCc3cc(F)ccc3C2)cc(C)c1NC(=O)CC(C)(C)C ?
Solution: 2.68

---

experiment: Food effect study, oral capsule, plasma PK in non-human primate; assay type: in vivo, Cynomolgus monkeys; conditions: cynomolgus monkey, plasma, po, 3 mg/kg, Group 2 (fed), 3 mg/kg capsule, Mean
Value Kind: AUC(0-t) (ng·h/mL)
Numbers only, in ng·h/mL.

Exercise: Quick one: AUC(0-t) for Cc1cc(N2CCc3cc(F)ccc3C2)cc(C)c1NC(=O)CC(C)(C)C [Compound A] ?
Solution: 1640

---

Test: First-in-human SAD and MAD study, pharmacokinetics
Format: in vivo
Conditions: human, plasma, oral; MAD, 15 mg QD Fasted, Day 7, N=6, mean
Description: A first-in-human study was conducted to evaluate the safety, tolerability and pharmacokinetics (PK) of single and multiple ascending doses (SAD and MAD) of oral Compound A. In the SAD Phase, 32 healthy volunteers were randomized (3:1) to Compound A (5, 15, 20, 25 or 30 mg) or placebo. The study featured an adaptive design. […] A sub-set of 8 male subjects were also assessed with Transcranial Magnetic Stimulation (TMS) for effects on cortical excitability (see Examples 4 and 5). […]
Value Kind: half-life at 7 days (h)
Answers are plain numbers, in h.

Exercise: Quick one: half-life at 7 days for Cc1cc(N2CCc3cc(F)ccc3C2)cc(C)c1NC(=O)CC(C)(C)C ?
Solution: 167

---

assay: Food effect study, oral capsule, plasma PK in non-human primate; format: in vivo, Cynomolgus monkeys; details: cynomolgus monkey, plasma, po, 3 mg/kg, fasted, 3 mg/kg oral, plasma, 0.5 h, individual animals; read-out: Concentration
Value Kind: concentration at 0.5 h

Exercise: Quick one: concentration at 0.5 h for Cc1cc(N2CCc3cc(F)ccc3C2)cc(C)c1NC(=O)CC(C)(C)C ?
Solution: 0 ng/mL

---

assay: Food effect study, oral capsule, plasma PK in non-human primate; type: in vivo, Cynomolgus monkeys; conditions: Cynomolgus, Vietnamese origin, cynomolgus monkey, plasma, po, 3 mg/kg, Group 1 (fasted), 3 mg/kg capsule, Mean; read-out: AUCinfobs
Value Kind: AUC(0-inf) (ng·h/mL)
Answers are plain numbers, in ng·h/mL.

Exercise: Quick one: AUC(0-inf) for Cc1cc(N2CCc3cc(F)ccc3C2)cc(C)c1NC(=O)CC(C)(C)C ?
Solution: 913

---

experiment: First-in-human SAD and MAD study, pharmacokinetics; type: in vivo; settings: human, plasma, oral; immediate release formulation; read-out: effective half-life
Value Kind: half-life

Exercise: Quick one: half-life for Cc1cc(N2CCc3cc(F)ccc3C2)cc(C)c1NC(=O)CC(C)(C)C ?
Solution: > 24 h

---

assay: Food effect study, oral capsule, plasma PK in non-human primate; type: in vivo, Cynomolgus monkeys; details: Cynomolgus (Vietnamese origin), cynomolgus monkey, plasma, po, 3 mg/kg, Group 2 (fed), 3 mg/kg capsule, individual subjects; read-out: Cmax
Value Kind: Cmax (ng/mL)
Give bare numbers, in ng/mL.

Exercise: Quick one: Cmax for Cc1cc(N2CCc3cc(F)ccc3C2)cc(C)c1NC(=O)CC(C)(C)C ?
Solution: 50.4

---

experiment: TMS crossover study, pharmacokinetic analysis; type: in vivo, human; conditions: male, human, plasma, oral, 20 mg, Placebo Treatment Period (carry-over), 2 h, Mean; read-out: Compound A Plasma Concentration
Value Kind: concentration at 2 h (ng/mL)
One number for each entry, in ng/mL.

Exercise: Quick one: concentration at 2 h for Cc1cc(N2CCc3cc(F)ccc3C2)cc(C)c1NC(=O)CC(C)(C)C ?
Solution: 5.46

---

test: First-in-human SAD and MAD study, pharmacokinetics; format: in vivo; details: human, plasma, oral, 15 mg, SAD, 15 mg fasted, N=3, tLast 32 h, Mean ± SD; read-out: AUC0-t
Value Kind: AUC(0-t) (ng·h/mL)
One number for each entry, in ng·h/mL.

Exercise: Quick one: AUC(0-t) for Cc1cc(N2CCc3cc(F)ccc3C2)cc(C)c1NC(=O)CC(C)(C)C [Compound A] ?
Solution: 397

---

assay: First-in-human SAD and MAD study, pharmacokinetics; type: in vivo; conditions: human, plasma, oral, 5 mg, SAD, 5 mg fasted, N=3, Mean ± SD
Value Kind: Tmax (h)
One number for each entry, in h.

Exercise: Quick one: Tmax for Cc1cc(N2CCc3cc(F)ccc3C2)cc(C)c1NC(=O)CC(C)(C)C ?
Solution: 3.17

---

test: Food effect study, oral capsule, plasma PK in non-human primate; assay type: in vivo, Cynomolgus monkeys; details: cynomolgus monkey, plasma, oral, 3 mg/kg, fed, 3 mg/kg capsule, plasma, 0 h, individual animals; read-out: Concentration
Value Kind: concentration at 0 h (ng/mL)
Answers are plain numbers, in ng/mL.

Exercise: Quick one: concentration at 0 h for Cc1cc(N2CCc3cc(F)ccc3C2)cc(C)c1NC(=O)CC(C)(C)C ?
Solution: 0

---

experiment: First-in-human SAD and MAD study, pharmacokinetics; assay type: in vivo; conditions: human, plasma, oral, 20 mg, SAD, 20 mg fasted, N=6, tLast 72 h, Mean ± SD; read-out: AUC0-t
Value Kind: AUC(0-t) (ng·h/mL)
Give bare numbers, in ng·h/mL.

Exercise: Quick one: AUC(0-t) for Cc1cc(N2CCc3cc(F)ccc3C2)cc(C)c1NC(=O)CC(C)(C)C ?
Solution: 709
